- measured.target: FMDV O/Mya/98 146S antigen (Foot-and-mouth disease virus serotype …, UniProt G8JKC2, strain)
- experiment: cell-based or functional assay
measurement.name: virus neutralizing test on BHK-21 cells, IC50 (mg/L)
Write the value in mg/L as a bare number.

>  <binder>
F28 (antibody, V domains shown) VH: QVQLRESGPSLVKPSQTLSLTCTVSGFSLNTYSVYWVRQVPGKALECIGGISSREARGYNPALKPRLSITKDNSKSQVSLSLSSVTTDDTATYYCAKAARGYAFTCGGISSHSDHYVDAWGQGLLVTVSS VL: QAVLTQPSSVSGSLGQRVSISCSGSSSNVGTGNHVSWFQQIPGSAPRTLIYGATRRLSGVPDRFSGSRSGNTATLTISSLQAEDEADYFCASWQSDSTTVFGSGTTLTVL

>  <unit.annotation>
mg/L

>  <data.value>
3.33

$$$$
>  <binder>
B73 (antibody, V domains shown) VH: QVQLRESGPSLVKPSQTLSLTCTVSGFSLSSYDVGWVRQAPGKALECLGSITNRGKTGYNPALKSRLSITKDNSKSQVSLSLNSVTTEDTATYYCAKLNSGGYGIDGNGCYAFGSNYNLYVDAWGQGLLITVSS VL: QAVLTQPSSVSGSLGQRVSITCSGSSSNLGTYNVGWYQQVPGSGLRTIIYGSSSRPSGVPDRFSGSRSGNTATLTISSLQAEDEADYFCTAYDHSISTAVSGSGTTLTVL

>  <unit.annotation>
mg/L

>  <data.value>
3.28

$$$$

Now for another entry.
Using the record for A19 (antibody, V domains shown) VH: QVQLRESGPSLVKPSQTLSLTCTTSGFSLSSYAVGWVRQAPGKALEWVGGISSGGKTCPSPALKTRLSITKLNSRGQVSLSVGSVSTEDTATYYCVKFFSGGWTYSCYGIDFGSVDAWGQGVLVTVSS VL: QAVLTQPSSVSGSLGQRVSITCSGSSNNIGSYGVGWYQQVPGSGLRTIIYGSTSRPSGVPDRFSGSKSGNTATLTISSLQAEDEADYFCAAGDDSSSSVDVFGSGTTLTVL , state its measured virus neutralizing test on BHK-21 cells, IC50.
17.9

Values were extracted from paper PMC6908506.
